System: oat, wild
Method: Test C postemergence
Type: in vivo, Avena fatua
Conditions: postemergence, 250 g ai/ha; scale 0 to 100 (0 no effect, 100 complete control)
Parameter Measured: Plant response rating, Oat, Wild

| Molecule | Value |
| --- | --- |
| CCc1cc(C(=O)NC(C)C)nn1Cc1ccnc(C(F)(F)F)c1 [Compound 139] | 40 |
| CCOc1cc(C(=O)NC2CC2)nn1Cc1ccnc(C(F)(F)F)c1 [Compound 189] | 60 |
| CCCNC(=O)c1cc(CC)n(Cc2ccnc(OC(F)F)c2)n1 [Compound 132] | 25 |
| CCCNC(=O)c1cc(CCC)n(Cc2cc(C(F)(F)F)nn2C)n1 [Compound 198] | 45 |
| CCNC(=O)c1cc(CC)n(Cc2ccnc(OC(F)F)c2)n1 [Compound 130] | 15 |
| CCOc1cc(C(=O)NC(C)C)nn1Cc1ccnc(C(F)(F)F)c1 [Compound 188] | 85 |

* * *

Tested on: velvetleaf
Method: Test A preemergence
Format: in vivo, Abutilon theophrasti
Conditions: preemergence, 125 g ai/ha, visual injury approx. 10 days after treatment
Parameter Measured: Velvetleaf plant response rating (0 to 100 scale)

| Smiles Notation | Value |
| --- | --- |
| CCc1cc(C(=O)NCC2CC2)nn1Cc1ccnc(C(F)(F)F)c1 | 100 |
| CCOc1cc(C(=O)NC2CC2)nn1Cc1ccnc(C(F)(F)F)c1 | 100 |
| CCc1cc(C(=O)NC2CC2)nn1Cc1cc(C(F)(F)C(F)(F)F)nn1C | 60 |
| CCNC(=O)c1cc(CC)n(Oc2cccc(OC(F)(F)F)c2)n1 | 0 |

* * *

Tested on: blackgrass
Method: Test D postemergence
Type: in vivo, Alopecurus myosuroides
Conditions: Postemergence, 31 g ai/ha, scale 0 to 100
Parameter Measured: Blackgrass plant response rating

| Smiles Notation | Assayed System | Parameter Measured | Value |
| --- | --- | --- | --- |
| CCOc1cc(C(=O)NC2CC2)nn1Cc1ccnc(C(F)(F)F)c1 | blackgrass | Blackgrass plant response rating | 10 |
| CCc1cc(C(=O)NCC(F)(F)F)nn1Cc1ccnc(C(F)(F)F)c1 | blackgrass | Blackgrass plant response rating | 5 |
| CCCc1cc(C(=O)NCC(F)(F)F)nn1Cc1ccnc(C(F)(F)F)c1 | blackgrass | Blackgrass plant response rating | 10 |
| CCCc1cc(C(=O)NCC(F)(F)F)nn1Cc1cc(C(F)(F)F)nn1C | blackgrass | Blackgrass plant response rating | 25 |

* * *

Test system: barnyardgrass
Method: Test A preemergence
Type: in vivo, Echinochloa crus-galli
Conditions: preemergence, 500 g ai/ha, visual injury after approx. 10 days, 0 to 100 scale (0 no effect, 100 complete control)
Measured Barnyardgrass plant response rating accompanies every entry in the list below.
Parameter Measured: Barnyardgrass plant response rating

| Compound | Assayed System | Value |
| --- | --- | --- |
| CCNC(=O)c1cc(CC)n(Cc2ccnc(OC(F)F)c2)n1 [Compound 130] | barnyardgrass | 100 |
| CCCNC(=O)c1cc(C)n(Cc2ccnc(C(F)(F)F)c2)n1 [Compound 191] | barnyardgrass | 100 |
| CCNC(=O)c1cc(CC)n(Oc2cccc(OC(F)(F)F)c2)n1 [Compound 223] | barnyardgrass | 40 |
| CCOc1cc(C(=O)NC2CC2)nn1Cc1ccnc(OC(F)F)c1 [Compound 133] | barnyardgrass | 100 |
| CCCc1cc(C(=O)NCC)nn1Cc1ccnc(C(F)(F)F)c1 [Compound 95] | barnyardgrass | 100 |
| CCCc1cc(C(=O)NCC(F)(F)F)nn1Cc1ccnc(C(F)(F)F)c1 [Compound 105] | barnyardgrass | 100 |
| CCc1cc(-c2ccc(C(F)(F)F)cc2)nn1Cc1nc(C(F)(F)F)nn1C [Compound 115] | barnyardgrass | 80 |
| CCc1cc(-c2ccc(C(F)(F)F)cc2)nn1C(=O)c1ccnc(C(F)(F)F)c1 [Compound 165] | barnyardgrass | 0 |
| CCONC(=O)c1cc(CC)n(Cc2cc(C(F)(F)F)no2)n1 [Compound 125] | barnyardgrass | 100 |

src = patent US20150105252A1
